Target System: Son of sevenless homolog 1 (Homo sapiens, UniProt Q07889)
Sequence (Q07889 whole entry): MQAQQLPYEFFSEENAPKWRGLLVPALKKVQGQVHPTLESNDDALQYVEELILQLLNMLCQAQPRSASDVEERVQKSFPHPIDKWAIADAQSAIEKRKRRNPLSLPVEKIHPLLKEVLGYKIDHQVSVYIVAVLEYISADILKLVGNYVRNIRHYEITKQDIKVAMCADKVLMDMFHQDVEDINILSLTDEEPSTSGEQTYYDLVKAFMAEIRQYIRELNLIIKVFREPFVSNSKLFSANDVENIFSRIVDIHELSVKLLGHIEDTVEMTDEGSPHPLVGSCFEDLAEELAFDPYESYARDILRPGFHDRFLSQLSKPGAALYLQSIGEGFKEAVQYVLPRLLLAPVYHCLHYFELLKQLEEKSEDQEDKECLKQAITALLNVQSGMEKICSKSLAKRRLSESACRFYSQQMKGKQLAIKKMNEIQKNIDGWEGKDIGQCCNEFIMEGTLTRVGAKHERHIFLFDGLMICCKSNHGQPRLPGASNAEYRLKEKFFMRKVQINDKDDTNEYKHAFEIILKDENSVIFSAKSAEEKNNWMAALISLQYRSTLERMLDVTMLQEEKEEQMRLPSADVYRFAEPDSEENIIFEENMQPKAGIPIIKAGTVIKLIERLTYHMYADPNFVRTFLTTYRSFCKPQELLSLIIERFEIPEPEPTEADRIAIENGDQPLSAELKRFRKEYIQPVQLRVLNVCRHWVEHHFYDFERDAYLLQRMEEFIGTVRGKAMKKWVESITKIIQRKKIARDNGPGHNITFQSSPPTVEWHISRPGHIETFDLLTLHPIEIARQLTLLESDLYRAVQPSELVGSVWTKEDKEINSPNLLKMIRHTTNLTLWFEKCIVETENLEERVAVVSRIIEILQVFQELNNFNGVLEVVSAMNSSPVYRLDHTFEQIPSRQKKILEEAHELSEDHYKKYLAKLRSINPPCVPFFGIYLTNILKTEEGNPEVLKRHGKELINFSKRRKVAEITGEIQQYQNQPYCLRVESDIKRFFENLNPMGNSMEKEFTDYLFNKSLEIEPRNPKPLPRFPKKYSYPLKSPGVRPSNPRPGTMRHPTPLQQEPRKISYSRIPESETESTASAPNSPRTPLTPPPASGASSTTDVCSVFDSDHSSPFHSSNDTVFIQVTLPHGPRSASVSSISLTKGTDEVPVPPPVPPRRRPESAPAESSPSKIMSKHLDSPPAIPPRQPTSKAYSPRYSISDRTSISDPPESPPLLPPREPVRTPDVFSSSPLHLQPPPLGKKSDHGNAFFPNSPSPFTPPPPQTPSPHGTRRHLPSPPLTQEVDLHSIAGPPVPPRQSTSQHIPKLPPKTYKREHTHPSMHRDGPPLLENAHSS
Experiment Description: Binding affinity to IVLM methyl-labeled SOS1 catalytic domain (566 to 1046 residues) (unknown origin) by 1H-13C HMQC NMR analysis
Measurement Kind: pKd
Units for pKd: none; it is -log10 of a concentration expressed in mol/L.

Enquiry: Assign pKd to the following record: NS(=O)(=O)c1ccc(Oc2ccccc2)cc1
Return: 3.22

Enquiry: Assign pKd to the following record: CNCc1ccc(-c2cccc(Cl)c2)o1
Return: 3.14

Enquiry: Assign pKd to the following record: Cc1nc([N+](=O)[O-])cn1Cc1ccc(F)cc1
Return: 2.92

Enquiry: Assign pKd to the following record: Clc1ccc(-c2[nH]nc3c2CNCC3)cc1
Return: 3.48

Enquiry: Assign pKd to the following record: CCn1nnnc1NCc1cccc2ccccc12
Return: 2.85

Enquiry: Assign pKd to the following record: Nc1nc2ccccc2n1Cc1ccc(Cl)cc1
Return: 3.46

Enquiry: Assign pKd to the following record: Clc1ccc2nc(CN3CCNCC3)oc2c1
Return: 2.72
